Overview of reported pIC50 across a group of compounds:
# System Tested: LC3B (Homo sapiens, UniProt Q9GZQ8)
# Experiment: Fluorescence Polarization (FP) Assay: displacement of FITC-labeled peptide from GST-LC3B
# Format: binding
# Condition Context: Fluorescence Polarization assay; GST-LC3B 180 nM, FITC-labeled peptide 18 nM, 25° C.; read-out: IC50
pIC50: −log10 of the molar value.

[[record]]
compound = "CN(C)CCNC=C1C(=O)CC(c2c(Cl)ccc(F)c2Cl)CC1=O (stereo not shown)"
reported_value = "> 5.52"

[[record]]
compound = "O=C1CC(c2ccccc2)CC(=O)C1=CNc1cccnc1 (stereo not shown)"
reported_value = "4.82 to 5.52"

[[record]]
compound = "O=C1CC([C@]23C[C@H]4C[C@H](C[C@H](C4)C2)C3)CC(=O)C1=CNCCN1CCN(CCO)CC1 (stereo partly shown)"
reported_value = "4.00 to 4.82"

[[record]]
compound = "O=C1CC(c2ccccc2C(F)(F)F)CC(=O)C1=CO (stereo not shown)"
reported_value = "> 5.52"

[[record]]
compound = "O=C1CC(c2cccs2)CC(=O)C1=CO (stereo not shown) [Compound 427]"
reported_value = "4.82 to 5.52"

[[record]]
compound = "O=C1CC(c2cccc(Cl)c2Cl)CC(=O)C1=CN1CCCCC1 (stereo not shown)"
reported_value = "4.82 to 5.52"

[[record]]
compound = "O=C1CC(c2ccc(C(=O)N3CCOCC3)cc2)CC(=O)C1=CNCCN1CCN(CCO)CC1 (stereo not shown)"
reported_value = "4.00 to 4.82"

[[record]]
compound = "CC(NCCN1CCN(CCO)CC1)=C1C(=O)CC(c2ccccc2)CC1=O (stereo not shown)"
reported_value = "3.00 to 4.00"


In the following, a different compound is considered.
Given item `COc1ccc(CN2CC(=O)C(=CNCCN3CCN(CCO)CC3)C(=O)C2)cc1` , the value recorded as its pIC50 is 4.00 to 4.82

----------
# System Tested: LC3B (Homo sapiens)
# Experiment: Fluorescence Polarization (FP) Assay: displacement of FITC-labeled peptide from GST-LC3B
# Type: binding
# Condition Context: Fluorescence Polarization assay; GST-LC3B 180 nM, FITC-labeled peptide 18 nM, 25° C.; read-out: IC50
pIC50: −log10 of the molar value.
Observation Type: pIC50

Would you please look over these solved cases?
[[record]]
compound = "CN(C)C=C1C(=O)CC(c2ccc(Cl)nc2)CC1=O (stereo not drawn)"
system_tested = "LC3B (Homo sapiens)"
reported_value = "4.82 to 5.52"

[[record]]
compound = "COCCOc1ccc(C2CC(=O)C(=CNCCN3CCN(CCO)CC3)C(=O)C2)cc1 (stereo not drawn)"
system_tested = "LC3B (Homo sapiens)"
reported_value = "4.00 to 4.82"

[[record]]
compound = "CN(C)CCNC=C1C(=O)CC(c2cc(C(F)(F)F)ccc2Cl)CC1=O (stereo not drawn)"
system_tested = "LC3B (Homo sapiens)"
reported_value = "> 5.52"

[[record]]
compound = "CN(C)CCNC=C1C(=O)CC(c2c(Br)ccc(F)c2F)CC1=O (stereo not drawn)"
system_tested = "LC3B (Homo sapiens)"
reported_value = "> 5.52"


In the following, a different compound is considered.
Given item Cc1ccc2[nH]cc(C3CC(=O)C(=CN(C)C)C(=O)C3)c2c1 (stereo not drawn) , the value recorded as its pIC50 is 4.82 to 5.52
